B1: TBX5 (parent)
chain: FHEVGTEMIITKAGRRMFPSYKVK

Variants of: B1
Experimental Details: protein stability index of a GFP-peptide fusion (GPS, HEK-293T) (PSI 1-6); higher = more stable;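 note: lentivirally expressed fusions sorted by FACS into six bins by GFP to DsRed ratio, PSI derived from sequencing read proportions per bin multiplied by bin number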
Measurement Setup: c terminus: a fixed tail appended
Value Type: protein stability index
Answers are plain numbers.

INSERT INTO results (sequence_entry, recorded_number) VALUES
  ('FHEVGTEMIITKAGRRMPPSYKVK [F18P]', 2.11),
  ('FCEVGTEMIITKAGRRMFPSYKVK [H2C]', 1.72),
  ('FHEVGTEMIITKAGRRMFPSYKWK [V23W]', 2.2),
  ('FHEVGTEMIITQAGRRMFPSYKVK [K12Q]', 1.73),
  ('FHEVGTEMIITKAGRRMFPSYKVR [K24R]', 1.51),
  ('FHEVGTEMKITKAGRRMFPSYKVK [I9K]', 2.48),
  ('FHEVGTEMIITKNGRRMFPSYKVK [A13N]', 2.27),
  ('FIEVGTEMIITKAGRRMFPSYKVK [H2I]', 1.69);

For every listed record, write down its protein stability index.
1. SHEVGTEMIITKAGRRMFPSYKVK [F1S]
2. FHEVGTEMIITKAGRRMFPQYKVK [S20Q]
3. FHEVGTEMIITKAGRRMKPSYKVK [F18K]

Data returned:
1: 3.09; 2: 2.83; 3: 1.94

Each of the following entries comes with a recorded value; kindly state protein stability index for each.
1. FHEVGDEMIITKAGRRMFPSYKVK [T6D]
2. FHEVGTEMIETKAGRRMFPSYKVK [I10E]
3. FHEVGTEMIITKAGRRMFPSYNVK [K22N]
4. FHEVGTEMIITKAGRKMFPSYKVK [R16K]

Data returned:
1: 2.25; 2: 2.66; 3: 2.03; 4: 2.65

# per-item lookup of protein stability index; items listed below
1. FHEVGTEMIITKAGRRMFPSYRVK [K22R]
2. FHEVGTEMIITKAGRRMFMSYKVK [P19M]

Data returned:
[2.45, 1.4]

Working through the 8 variants below one at a time, give protein stability index for each.
1. FHEVGTEMGITKAGRRMFPSYKVK [I9G]
2. FSEVGTEMIITKAGRRMFPSYKVK [H2S]
3. FHEVGTEMIITKAGRMMFPSYKVK [R16M]
4. FHEVGTEMILTKAGRRMFPSYKVK [I10L]
5. FHEAGTEMIITKAGRRMFPSYKVK [V4A]
6. FHEVGTEMPITKAGRRMFPSYKVK [I9P]
7. FHEVGTEMIITKAGRRMFPSYKVE [K24E]
8. FHEVGTDMIITKAGRRMFPSYKVK [E7D]

Data returned:
2
2.53
1.96
2.21
1.97
2.75
1.89
1.81
